test system: SK-MEL-2; assay: NCI tumour cell line growth inhibition, 48 h
Calls of active or inactive are those of the source. Cut-off read from the data, not from the text of the source: active = GI50 up to about 1.1 µM and inactive = higher.
Labels: active, inactive

{"molecule": "c1ccc(CSc2nnc3c4ccccc4c4ccccc4c3n2)cc1", "assigned class": "inactive"}
{"molecule": "FC(F)(F)c1ccc2nc(NCc3ccccc3)c(-c3ccccc3)nc2c1", "assigned class": "inactive"}
{"molecule": "O=C(O)C12CCC(CC1=O)C2 (stereo unspecified)", "assigned class": "inactive"}
{"molecule": "Nc1ncnc2c1ncn2C1OC(CSC(F)F)C(O)C1O (stereo unspecified)", "assigned class": "inactive"}
{"molecule": "N#Cc1c(C#N)c(-c2cccc([N+](=O)[O-])c2)n(-c2ccccc2)c1N", "assigned class": "inactive"}
{"molecule": "Cc1cc2c(=Cc3ccc(N(C)C)cc3)c3ccccc3n2[n+]1C", "assigned class": "active"}

----------
tested on: SK-MEL-28; assay: NCI tumour cell line growth inhibition, 48 h
Activity calls are given as the source filed them. Cut-off read from the data, not from the text of the source: active = GI50 up to about 1.1 µM and inactive = higher.
property label: GI50

{"compound": "COC(=O)C(NC(=O)c1ccccc1)C(c1ccc(Cl)cc1)P(=O)(OC)OC (configuration not stated)", "obs value": "> 100 µM (inactive)"}
{"compound": "O=C(CCc1ccc(O)c(O)c1)NCCc1cc(O)cc(O)c1", "obs value": "> 100 µM (inactive)"}
{"compound": "CCOC(=O)C1=C(O)C(=O)c2cc(C)ccc2C1=O", "obs value": "> 100 µM (inactive)"}
{"compound": "O=C1OC(C2Cc3ccc4c(c3C2=O)CCCC4)c2ccccc21 (configuration not stated)", "obs value": "52.5 µM (inactive)"}
{"compound": "O=C1CN2C(Cl)(Cl)C2(c2ccccc2)c2cc(Cl)ccc2N1CC(F)(F)F (configuration not stated)", "obs value": "22.6 µM (inactive)"}
{"compound": "O=C1/C(=C/c2ccccc2)CN(C(=O)/C=C/c2ccccc2)C/C1=C\\c1ccccc1", "obs value": "7.62 µM (inactive)"}
{"compound": "Cc1nc(-c2ccc(Cl)cc2)cn2c1nc1ccccc12", "obs value": "> 100 µM (inactive)"}

----------
test system: OVCAR-4; experiment: NCI tumour cell line growth inhibition, 48 h
Activity calls are given as the source filed them. No stated cut-off is given here; in the data, active = GI50 up to about 1.1 µM and inactive = higher.
Labels: active, inactive

{"compound": "COc1cc2c(SCCN(C)C)nc3ccccc3c2c2ccccc12", "target or test system": "OVCAR-4", "assigned class": "inactive"}
{"compound": "Cc1ccc(/C=C(\\C#N)c2ccccc2)cc1", "target or test system": "OVCAR-4", "assigned class": "inactive"}
{"compound": "CCOC(=O)C1=CNC2=N[C@H]3CCCC[C@@H]3N2C1=O", "target or test system": "OVCAR-4", "assigned class": "inactive"}
{"compound": "SC1=NC2=C(CSC/C2=C\\c2cccc(Br)c2)C(c2cccc(Br)c2)N1 (stereo not drawn)", "target or test system": "OVCAR-4", "assigned class": "inactive"}
{"compound": "COc1ccc(-c2cc(-c3cc(C)cc(Br)c3O)no2)cc1", "target or test system": "OVCAR-4", "assigned class": "inactive"}
{"compound": "O=C1c2ccsc2C(=O)c2sc(CO)cc21", "target or test system": "OVCAR-4", "assigned class": "active"}
{"compound": "CCN(CC)c1ccc2cc(-c3nnc(-c4ccccc4O)o3)c(=O)oc2c1", "target or test system": "OVCAR-4", "assigned class": "inactive"}
{"compound": "CCOC(=O)Nc1cc2c(c(N)n1)N=C(c1ccccc1)CN2", "target or test system": "OVCAR-4", "assigned class": "inactive"}
